B1: library; a variant is named by its letters at N, in order (parent)
chain: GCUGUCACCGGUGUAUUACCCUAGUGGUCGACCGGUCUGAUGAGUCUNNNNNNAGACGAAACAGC

- Variants of: B1
- method: normalized RNA/DNA level with ligand (relative to sTRSVctl = 100) (log10 (% of sTRSVctl)); ligand: hypoxanthine (xanthine aptamer); higher = less ribozyme self-cleavage, higher mRNA level
- details: ligand concentration (+) RNA-Seq: 5 mM, HEK293T, reporter: mCherry (pCS4076), ligand present: yes
A collection of variants and their measured normalized RNA/DNA level with ligand (log10)

UCGAGU = 1.74
UUCAUA = 1.88
GAUACG = 1.87
AACCGG = 1.88
UGCGGG = 1.98
UCUUCG = 1.93

Then this variant:
q: Recorded normalized RNA/DNA level with ligand (log10) for GACACA , please?
a: 1.93
